molecular target: KLKB1 (Homo sapiens (Human), UniProt P03952); experiment: Inhibition of KLKB1 in kaolin activated human PPP; assay type: biochemical; conditions: human platelet poor plasma (Na-Citrat), 25, 75, 250 or 750 μg/mL kaolin, global fit; read-out: IC50
Sequence (P03952 391-638 limits assumed): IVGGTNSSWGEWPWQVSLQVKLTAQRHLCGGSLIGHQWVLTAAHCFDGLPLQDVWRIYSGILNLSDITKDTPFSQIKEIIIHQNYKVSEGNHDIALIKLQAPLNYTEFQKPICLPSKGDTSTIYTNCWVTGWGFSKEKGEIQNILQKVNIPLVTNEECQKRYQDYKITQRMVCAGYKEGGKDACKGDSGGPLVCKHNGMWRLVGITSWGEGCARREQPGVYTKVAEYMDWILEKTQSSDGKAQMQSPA
Sequence (P03952 20-390 partner limits assumed): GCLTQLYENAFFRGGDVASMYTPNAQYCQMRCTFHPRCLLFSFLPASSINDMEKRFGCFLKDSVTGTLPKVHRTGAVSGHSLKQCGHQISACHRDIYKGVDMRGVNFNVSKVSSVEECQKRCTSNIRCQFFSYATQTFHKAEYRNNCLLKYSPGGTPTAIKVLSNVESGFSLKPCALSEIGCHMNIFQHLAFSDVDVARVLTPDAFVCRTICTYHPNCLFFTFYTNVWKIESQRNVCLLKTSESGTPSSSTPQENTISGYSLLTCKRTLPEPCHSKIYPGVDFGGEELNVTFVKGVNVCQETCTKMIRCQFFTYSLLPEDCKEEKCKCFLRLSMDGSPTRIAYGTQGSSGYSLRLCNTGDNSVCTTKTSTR
observable: IC50 (nM)
Answers are plain numbers, in nM.

INSERT INTO results (compound, observable, measured_number) VALUES
  ('Cc1cc2c(c(N)n1)CC[C@H]2NC(=O)c1cnn(Cc2ccc(N3CC4CC4C3)nc2C)c1 (some centres unmarked)', 'IC50', 16.6),
  ('Cc1nc(N2CC3CC3C2)ccc1Cn1cc(C(=O)N[C@@H]2CCc3c2ccnc3N)c(C)n1 (some centres unmarked)', 'IC50', 20.1),
  ('Cc1nc(N2CC3C(C2)C3(F)F)ccc1Cn1cc(C(=O)N[C@@H]2CCc3c2ccnc3N)c(C(F)(F)F)n1 (some centres unmarked)', 'IC50', 17.9);

Please look at the items below and tell me IC50 for each one, in order.
1. Cc1nc(N2CC3CC3C2)ncc1Cn1cc(C(=O)N[C@@H]2CCc3c2ccnc3N)cn1 (some centres unmarked)
2. Cc1nc(N2CC3C(C2)C3(F)F)ccc1Cn1cc(C(=O)N[C@@H]2CCc3c2ccnc3N)cn1 (some centres unmarked)
3. Cc1cc2c(c(N)n1)CC[C@H]2NC(=O)c1cnn(Cc2ccc(N3CC4C(C3)C4(F)F)nc2C)c1 (some centres unmarked)
4. Cc1nc(N2CC3CC3C2)ccc1Cn1cc(C(=O)N[C@@H]2CCc3c2ccnc3N)c(C(F)(F)F)n1 (some centres unmarked)
5. Cc1cc2c(c(N)n1)CC[C@H]2NC(=O)c1cnn(Cc2cnc(N3CC4CC4C3)nc2C)c1 (some centres unmarked)

### Response
1. 23.9
2. 14
3. 16.2
4. 18
5. 52.2

###

Exercise: for every item that follows, state its recorded IC90.
molecular target: KLKB1 (Homo sapiens (Human)); test: Inhibition of KLKB1 in kaolin activated human PPP; assay type: biochemical
Numbers only, in nM.

Some solved entries appear below for comparison.
INSERT INTO measurements (molecule, value_units, measured_number) VALUES
  ('Cc1cc2c(c(N)n1)CC[C@H]2NC(=O)c1cnn(Cc2ccc(N3CC4C(C3)C4(F)F)nc2C)c1 (stereo partly shown) [Example 10]', 'nM', 96.2),
  ('Cc1cc2c(c(N)n1)CC[C@H]2NC(=O)c1cnn(Cc2cnc(N3CC4CC4C3)nc2C)c1 (stereo partly shown) [Example 17]', 'nM', 511),
  ('Cc1nc(N2CC3C(C2)C3(F)F)ccc1Cn1cc(C(=O)N[C@@H]2CCc3c2ccnc3N)cn1 (stereo partly shown) [Example 9]', 'nM', 89.5);

From here, focus on the item given below.
Summary: Cc1nc(N2CC3CC3C2)ccc1Cn1cc(C(=O)N[C@@H]2CCc3c2ccnc3N)cn1 (stereo partly shown) [Example 1] , KLKB1 (Homo sapiens (Human)), IC90 = 199

###

Exercise: for every item that follows, state its recorded log10 IC50.
target: KLKB1 (Homo sapiens (Human), UniProt P03952); experiment: Inhibition of KLKB1 using an endpoint assay (fluorogenic substrate H-Pro-Phe-Arg-AMC); assay type: biochemical; details: endpoint assay, 1 h at room temperature, 0.10 μM H-Pro-Phe-Arg-AMC; read-out: IC50
Transform log10 | Measure IC50 | Unit nM

Some solved entries appear below for comparison.
INSERT INTO measurements (compound, observable, measured_number) VALUES
  ('Cc1nc(N2CC3CC3C2)ccc1Cn1cc(C(=O)N[C@@H]2CCc3c2ccnc3N)c(C(F)F)n1 (stereo partly shown) [Example 19]', 'log10 IC50', 0.00),
  ('Cc1nc(N2CC3CC3C2)ncc1Cn1cc(C(=O)N[C@@H]2CCc3c2ccnc3N)cn1 (stereo partly shown) [Example 11]', 'log10 IC50', 0.23),
  ('Cc1cc2c(c(N)n1)CC[C@H]2NC(=O)c1cnn(Cc2ccc(N3CC4CC4C3)nc2C)c1 (stereo partly shown) [Example 2]', 'log10 IC50', -0.52),
  ('Cc1nc(N2CC3CC3C2)ccc1Cn1cc(C(=O)N[C@@H]2CCc3c2ccnc3N)c(C(C)C)n1 (stereo partly shown) [Example 6]', 'log10 IC50', 0.00),
  ('Cc1nc(N2CC3C(C2)C3(F)F)ccc1Cn1cc(C(=O)N[C@@H]2CCc3c2ccnc3N)c(C(F)(F)F)n1 (stereo partly shown) [Example 7]', 'log10 IC50', 0.04);

Please look at the items below and tell me log10 IC50 for each one, in order.
1. Cc1nc(N2CC3C(C2)C3(F)F)ccc1Cn1cc(C(=O)N[C@@H]2CCc3c2ccnc3N)cn1 (stereo partly shown) [Example 9]
2. Cc1nc(N2CC3C(C2)C3(F)F)ncc1Cn1cc(C(=O)N[C@@H]2CCc3c2ccnc3N)nn1 (stereo partly shown) [Example 20]

### Response
[-0.22, 0.59]

Where do the numbers come from? From patent US10501440B2.
